// Xanthine oxidase (XO) (Bos taurus) pKi records
// field semantics: pKi = negative decimal log of concentration (mol/L)

> print(dat)
                         record.smiles                   target.under.test  measurement.name  recorded.value
1  Cc1cc(O)c2c(c1)C(=O)c1cccc(O)c1C2=O  Xanthine oxidase (XO) (Bos taurus)               pKi            4.41

# ---- query molecule ----
(Q) Name the reported pKi value associated with the molecule COc1cc(C)cc2c1C(=O)c1c(O)cccc1C2=O
(A) 5.65

* * *

// UniProtKB P80457 IC50 records
Field: numeric (µM). Do not append units.

> print(dat)
                        record.smiles  measurement.name  recorded.value
1  COc1cc(C)cc2c1C(=O)c1c(O)cccc1C2=O              IC50            24.8

(Q) Form entry - test system: UniProtKB P80457; read-out: IC50; compound: Cc1cc(O)c2c(c1)C(=O)c1cccc(O)c1C2=O
(A) 201

These measurements were taken from paper doi:10.1101/2023.03.04.531071v1.
